What pIC50 was measured for each of the following?
Sequence of the target: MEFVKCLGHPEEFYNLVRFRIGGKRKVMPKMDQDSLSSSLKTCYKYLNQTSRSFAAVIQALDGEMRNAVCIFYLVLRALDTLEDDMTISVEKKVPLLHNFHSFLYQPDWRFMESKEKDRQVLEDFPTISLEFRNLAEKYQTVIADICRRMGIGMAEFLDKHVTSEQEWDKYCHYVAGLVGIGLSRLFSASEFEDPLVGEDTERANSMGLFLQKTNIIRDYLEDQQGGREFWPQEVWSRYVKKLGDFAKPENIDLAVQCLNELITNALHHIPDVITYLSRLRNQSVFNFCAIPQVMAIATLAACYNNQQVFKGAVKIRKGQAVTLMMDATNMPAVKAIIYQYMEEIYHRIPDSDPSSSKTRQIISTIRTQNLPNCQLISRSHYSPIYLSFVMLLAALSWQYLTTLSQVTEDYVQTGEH
Expect pIC50 as a plain number equal to -log10 of the molar concentration.

Qu. Query (compound): C[C@@H](NC(=O)C[C@H](CC(=O)O)C(=O)O)[C@H](Cc1ccc(Cl)c(Cl)c1)c1ccc(-c2ccccc2)c(F)c1 ; field requested: pIC50
Ans. 7.80

Qu. Query (compound): CC(NC(=O)CC(CC(=O)O)C(=O)O)C(Cc1ccc(Cl)cc1)c1ccc(Cl)cc1 (centres undefined) ; field requested: pIC50
Ans. 6.18

Qu. Query (compound): C[C@H](NC(=O)C[C@@H](CC(=O)O)C(=O)O)[C@@H](Cc1ccc(Cl)cc1)c1ccc(-c2ccccc2)cc1 ; field requested: pIC50
Ans. 8.49

Entry source: ChEMBL document CHEMBL1151488
